# credit: patent US8658690B2

So I've got a bunch of molecules here, and I need their Cell viability (%) values.
Tested on: LPS-stimulated RAW264.7 macrophage cells
ASSAY_EXPLANATION: Cell viability by MTT method in LPS-stimulated RAW264.7 cells
Format: cell-based, murine
MEASUREMENT_PARAMETERS: 1 μg/mL, 30 min pretreatment then 50 ng/mL LPS 48 hours
Description: IL-6, a proinflammatory cytokine which is a useful marker of infection, is secreted by macrophages in many infectious and inflammatory states, including cardiac surgery, cardiogenic shock, coronary bypass and bacteria sepsis (Kantar, M. et al., Eur. J. Pediatr. 2000, 159, 156-157). […] The productions of IL-6 from LPS-stimulated macrophages were measured to evaluate the anti-inflammation effect of the compounds. […]
Could you give the number and then its unit, please?

State the recorded Cell viability (%) for this entry: `CC(C)CC1=C(c2ccc(O)cc2)C(=O)OC1=O` 105 ± 2 %

State the recorded Cell viability (%) for this entry: `CC(C)CC1=C(c2ccc(O)cc2)C(=O)NC1=O` 103 ± 5%

State the recorded Cell viability (%) for this entry: CC(C)=CCOc1ccc([C@@H]2C(=O)NC(=O)[C@H]2CC(C)C)cc1 (relative stereo) 106 ± 4%

State the recorded Cell viability (%) for this entry: `COC(=O)/C(CC(C)C)=C(\C(=O)OC)c1ccc(O)cc1` 107 ± 7%

State the recorded Cell viability (%) for this entry: CC(C)C[C@H]1C(=O)OC(=O)[C@H]1c1ccc(O)cc1 (relative stereo) 104 ± 6%

State the recorded Cell viability (%) for this entry: CC(C)C[C@@H]1C(=O)N(O)C(=O)[C@H]1c1ccc(O)cc1 (relative stereo) 111 ± 6 %

###

Tested on: RAW264.7 macrophage cells
ASSAY_EXPLANATION: Cell viability by MTT method in RAW264.7 cells treated with compounds for 48 hours (no LPS)
Type: cell-based, murine
MEASUREMENT_PARAMETERS: 0.5 μg/mL, RAW264.7, no LPS, mean ± SD
MEASURE: Cell viability (%)

State the recorded Cell viability (%) for this entry: `CC(C)CC1=C(c2ccc(O)cc2)C(=O)OC1=O` 101 ± 7%

State the recorded Cell viability (%) for this entry: `COC(=O)/C(CC(C)C)=C(\C(=O)OC)c1ccc(O)cc1` 100 ± 6%

State the recorded Cell viability (%) for this entry: CC(C)C[C@@H]1C(=O)N(O)C(=O)[C@H]1c1ccc(O)cc1 (relative stereo) 106 ± 7%

State the recorded Cell viability (%) for this entry: CC(C)C[C@H]1C(=O)OC(=O)[C@H]1c1ccc(O)cc1 (relative stereo) 91 ± 9%

State the recorded Cell viability (%) for this entry: `CC(C)CC1=C(c2ccc(O)cc2)C(=O)NC1=O` 97 ± 13%

State the recorded Cell viability (%) for this entry: CC(C)=CCOc1ccc([C@@H]2C(=O)NC(=O)[C@H]2CC(C)C)cc1 (relative stereo) 103 ± 2%

###

Test system: LPS-stimulated RAW264.7 macrophage cells
ASSAY_EXPLANATION: Cell viability by MTT method in LPS-stimulated RAW264.7 cells
Format: cell-based, murine
MEASUREMENT_PARAMETERS: 5 μg/mL, 30 min pretreatment then 50 ng/mL LPS 48 hours
So I've got a bunch of molecules here, and I need their Cell viability (%) values.
Could you give the number and then its unit, please?

State the recorded Cell viability (%) for this entry: `CC(C)CC1=C(c2ccc(O)cc2)C(=O)NC1=O` 97 ± 5%

State the recorded Cell viability (%) for this entry: CC(C)C[C@@H]1C(=O)N(O)C(=O)[C@H]1c1ccc(O)cc1 (relative stereo) 111 ± 8 %

State the recorded Cell viability (%) for this entry: `COC(=O)/C(CC(C)C)=C(\C(=O)OC)c1ccc(O)cc1` 106 ± 9%

State the recorded Cell viability (%) for this entry: `CC(C)CC1=C(c2ccc(O)cc2)C(=O)OC1=O` 102 ± 2%

State the recorded Cell viability (%) for this entry: CC(C)C[C@H]1C(=O)OC(=O)[C@H]1c1ccc(O)cc1 (relative stereo) 99 ± 3%

State the recorded Cell viability (%) for this entry: CC(C)=CCOc1ccc([C@@H]2C(=O)NC(=O)[C@H]2CC(C)C)cc1 (relative stereo) 105 ± 3%
